Source: patent US9273057B2

- ASSAYED SYSTEM: CK2A1 (CK2α/β) (Homo sapiens)
- Sequence (P68400 whole entry, species assumed): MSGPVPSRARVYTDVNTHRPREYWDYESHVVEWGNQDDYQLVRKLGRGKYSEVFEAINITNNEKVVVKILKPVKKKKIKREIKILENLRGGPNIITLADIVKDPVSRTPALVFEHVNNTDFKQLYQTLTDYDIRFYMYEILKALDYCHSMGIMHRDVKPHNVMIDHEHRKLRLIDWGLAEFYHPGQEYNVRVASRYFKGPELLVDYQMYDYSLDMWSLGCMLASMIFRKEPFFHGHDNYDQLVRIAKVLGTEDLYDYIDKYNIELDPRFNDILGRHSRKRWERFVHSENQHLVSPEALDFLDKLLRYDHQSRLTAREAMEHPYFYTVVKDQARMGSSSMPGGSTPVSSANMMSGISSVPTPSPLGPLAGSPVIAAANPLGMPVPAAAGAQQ
- Sequence (P67870 whole entry partner, species assumed): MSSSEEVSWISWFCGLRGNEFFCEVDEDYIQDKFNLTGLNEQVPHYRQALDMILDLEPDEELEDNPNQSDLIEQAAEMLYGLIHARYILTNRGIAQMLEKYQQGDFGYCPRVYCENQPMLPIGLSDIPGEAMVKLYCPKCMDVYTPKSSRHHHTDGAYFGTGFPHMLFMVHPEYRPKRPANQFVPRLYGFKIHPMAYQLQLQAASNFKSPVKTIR
- TEST METHOD NOTES: CK2 kinase assay, CK2A1 (CK2α/β)
- Type: biochemical
- COND: Table A; read-out: CK2A1 (CK2α/β) (IC50)
pIC50: −log10 of the molar value.
Param threshold (9) applies to pIC50; output criterion met when value >= threshold, criterion not met when value < threshold.

Is reported pIC50 greater than or equal to 9 here: CC1(C)CC(CN2CCN(c3cc(C#N)cc(Nc4nc(NC5CC5)c5ncc(C#N)n5n4)c3Cl)CC2)O1 (stereo not shown)
criterion not met

Does the reported pIC50 for "CC1(CN2CCN(c3cc(C(F)F)cc(Nc4nc(NC5CC5)c5ncc(C#N)n5n4)c3Cl)CC2)COC1" fall at or above the 9 mark?
criterion not met

Evaluate "N#Cc1cc(Nc2nc(NC3CC3)c3ncc(C#N)n3n2)c(Cl)c(C2(F)CNC2)c1" : pIC50 at minimum 9?
criterion met

Has CC(CC(C)c1cc(Cl)c(Nc2nc(NC3CC3)c3ncc(C#N)n3n2)cc1C#N)NCCC(F)(F)F (single isomer, unassigned) [Example 734] a recorded pIC50 greater than or equal to 9?
criterion not met

Does pIC50 meet or surpass 9 for COC(=O)NCC1CN(c2cc(C#N)cc(Nc3nc(NC4CC4)c4ncc(C#N)n4n3)c2Cl)CCN1C (stereo not shown) ?
criterion not met

# check: pIC50 of "Cn1cnc2cc(Nc3nc(NC4CC4)c4ncc(C#N)n4n3)ccc21" is greater than or equal to 9
criterion met
